Tested on: OVCAR-5 ovarian
Assay: NCI tumour cell line growth inhibition, 48 h; in the data active = GI50 below about 0.43 µM; inactive = the rest
Permitted responses: active, inactive

A selection of reference data follows.
1. C=C(C)[C@@H]1CC[C@]2(C(N)=O)CC[C@]3(C)[C@H](CC[C@@H]4[C@@]5(C)C/C(=C/c6cccnc6)[C@H](O)C(C)(C)[C@@H]5CC[C@]43C)[C@@H]12; inactive
2. CCN1CCN(c2ccc(Nc3ncc4ccc5ncn(C(C)C)c5c4n3)nc2)CC1; active
3. COc1ccc(C2CC(=O)c3c(O)c(OC)c(OC)c(OC)c3O2)cc1O (stereo not drawn); inactive

Now let's try a different one.
In: Record lookup: outcome of this test for Cc1cc2nc(C(Cl)Cl)nc(-c3ccccc3)n2n1 ?
Out: inactive

====

# TGI values compiled below
Tested on: SF-268 CNS
Assay: NCI tumour cell line growth inhibition, 48 h

In: Given COc1cc(/C=C2\C[C@H]3[C@@H]4CC=C5C[C@@H](OC(C)=O)CC[C@]5(C)[C@H]4CC[C@]3(C)[C@H]2OC(C)=O)ccc1OCCN1CCCCC1 , state its recorded TGI.
Out: > 50 µM

In: Can you share its TGI? I mean this molecule: COc1ccc(C2S/C(=C\c3ccccc3)C(=O)N2NC(=O)Cc2ccccc2)cc1 (stereo not drawn)
Out: > 100 µM

In: Sample CCOC(=O)c1ccc(N=c2oc3ccc(OC)cc3cc2-c2nc3ccccc3[nH]2)cc1 — what was its TGI?
Out: > 100 µM

====

This listing pairs compounds with measured TGI.
Tested on: HCT-116 colon
Assay: NCI tumour cell line growth inhibition, 48 h

Past entries and their recorded results:
1. Cc1ccc(/C=N/NS(=O)(=O)c2ccc(/C=C3\NC(=O)NC3=O)cc2)cc1; > 100 µM
2. CN1N=C2c3ccccc3CC[C@H]2C1c1cccc(O)c1 (stereo partly specified); > 100 µM
3. Cn1c(=N)n[n+]([O-])c2ccccc21; > 100 µM
4. Cn1c(=O)c2c(nc(NCCNc3nc4c(c(=O)n(C)c(=O)n4C)n3C)n2C)n(C)c1=O; > 100 µM

In: Please look up its TGI: COc1ccc(C(c2ccc3c(c2)OCO3)N2C(=O)CCC2C(=O)O)cc1 (stereo unspecified)
Out: > 100 µM

In: Name the reported TGI value associated with the compound CN1CCc2cc(N)cc3c2C1Cc1ccc2c(c1-3)OCO2 (stereo unspecified)
Out: > 90.4 µM

====

Tested on: NCI-H522 lung
Assay: NCI tumour cell line growth inhibition, 48 h
Endpoint name: TGI

Recorded results for 5 compounds are shown here.
1. Cc1ccc(S(=O)(=O)Nn2c(O)c(C#N)c(-c3ccc(N(C)C)cc3)c(C#N)c2=O)cc1; > 50 µM
2. O=C1C[C@H](CCC(=O)OCc2ccccc2)NC(=O)C[C@H](CCC(=O)OCc2ccccc2)NC(=O)C[C@H](CCC(=O)OCc2ccccc2)N1; > 100 µM
3. CCOC(=O)c1cc(OC(=O)CC)c2c(OC)ccc(OC)c2c1; > 100 µM
4. C=C[C@H]1C=Cc2c(OC)cccc2[C@@H]1COP1(=S)NC(C)C(c2ccccc2)O1 (stereo partly specified); > 100 µM
5. CCO/C=C(\C(=O)OC)S(=O)(=O)c1ccc(C)cc1; > 100 µM

As a next step, examine the compound that follows.
In: # query: TGI of entry Cc1cn(C2CC(NC(=NCC3OC(n4cnc5c(N)ncnc54)CC3O)NC#N)C(CO)O2)c(=O)[nH]c1=O (stereo unspecified)
Out: > 100 µM

====

Tested on: NCI-H522 lung
Assay: NCI tumour cell line growth inhibition, 48 h
Endpoint name: TGI

Example compounds with recorded TGI:
1) Cc1c(CC/C(=N\Nc2ccc([N+](=O)[O-])cc2[N+](=O)[O-])c2ccccc2)c2ccccc2n1C; > 100 µM
2) Cc1cc(=O)[nH]c(NNC(C#N)c2ccco2)n1 (centres undefined); > 100 µM
3) O=C1OC(CS(=O)(=O)c2ccccc2)CC1O (centres undefined); > 100 µM
4) c1cc(C[S+]2CCCC2)sc1C[S+]1CCCC1; > 100 µM
5) CCOP(=O)(OCC)C(Nc1ccc(C(=O)O)cc1)c1ccc(C(Nc2ccc(C(=O)O)cc2)P(=O)(OCC)OCC)cc1 (centres undefined); > 100 µM
6) CCOC(=O)c1cc2cc(C)cc(C(=O)c3ccc([N+](=O)[O-])cc3)c2[nH]1; > 100 µM
7) COCN1C(=O)[C@@H]2CCCN2C(=O)c2ccc([N+](=O)[O-])cc21; > 100 µM
8) C#CCCOC(=O)c1ccccc1OC(C)=O; > 100 µM
9) CCOC(=O)NC1CC2CCC1(OC)C=C2C (centres undefined); > 100 µM
10) O=C(Nc1ccc(Cl)cc1)NS(=O)(=O)c1c(-c2ccccc2)oc2ccccc2c1=O; 31.2 µM

In: Which TGI is listed for CC(=O)[O][Bi]([c]1ccccc1)[c]1ccccc1 ?
Out: 3.11 µM

In: Name the reported TGI value associated with the compound C=C(C)[C@@H]1CC[C@]2(C(N)=O)CC[C@]3(C)[C@H](CC[C@@H]4[C@@]5(C)C/C(=C/c6cccnc6)[C@H](O)C(C)(C)[C@@H]5CC[C@]43C)[C@@H]12
Out: > 100 µM

In: Which value of TGI has been reported for Cc1cc(O)c2c(c1)CC(O)C1=C2C(=O)c2c(O)ccc(OC3CC(O)C(OC4CC(OC5CCC(O)C(C)O5)C(O)C(C)O4)C(C)O3)c2C1=O (centres undefined) in the records?
Out: 2.52 µM

In: Recorded TGI of O=c1/c(=C/c2ccc([N+](=O)[O-])o2)sc2n1[C@@H](c1ccc3c(c1)OCO3)C=C(c1cc(F)c(Cl)cc1Cl)N=2 , please.
Out: 65.6 µM

====

System: NCI/ADR-RES ovarian
Assay: NCI tumour cell line growth inhibition, 48 h
Endpoint name: TGI (µM)
Output spec: scalar in µM, unitless text.

Use the examples below as a reference point.
1. Fc1c(F)c(C(F)(F)F)c(F)c(F)c1N/N=C/c1cn(Cc2ccccc2)c2ccccc12; 59.1
2. Oc1c(I)cc(I)cc1CN(Cc1ccccn1)Cc1ccccn1; 6.46

The record that follows has no TGI shown yet.
In: Query: TGI; subject: COc1cc(N2CCC(N3CCN(C)CC3)CC2)ccc1Nc1ncc(Cl)c(Nc2ccccc2S(=O)(=O)C(C)C)n1
Out: 5.75

====

Test system: HOP-92 NSCLC
Assay: NCI tumour cell line growth inhibition, 48 h
Endpoint name: TGI

In: Item N#C[S-].[Ce+3].c1cnc2c(c1)ccc1cccnc12.c1cnc2c(c1)ccc1cccnc12.c1cnc2c(c1)ccc1cccnc12 has what recorded TGI?
Out: 22.7 µM

In: May I ask what TGI has been recorded for O=[N+]([O-])c1ccc(C(=Nc2ccccc2)SSC(=Nc2ccccc2)c2ccc([N+](=O)[O-])o2)o1 ?
Out: 6.22 µM

In: Suppose we examine the molecule Nc1ccc(-c2ccc(-c3nc4cc(Cl)c(Cl)cc4[nH]3)cc2)cc1 ; what TGI value has been reported?
Out: 65 µM

In: So what does the record say about TGI for COc1cccc(Nc2nc(N)nc(N)c2N=O)c1 ?
Out: 40 µM

In: // returns reported TGI for input CC[CH2][Sn]([CH2]CC)([O]C(=O)Cc1ccc(F)cc1)[O][Sn]([CH2]CC)([CH2]CC)[O]C(=O)Cc1ccc(F)cc1
Out: 0.522 µM

In: Using the record for c1cc(NC2=NCCO2)c2c(c1)OCO2 , report its TGI.
Out: > 100 µM

In: Returns the measured TGI for the input molecule. Input: O=C(C=Nc1ccccc1C(=O)[O-])c1cccs1.O=C(C=Nc1ccccc1C(=O)[O-])c1cccs1.[Zn+2]
Out: 64 µM

In: Request the reported TGI associated with CCOC(=O)N1C=CC(=C2C(=C3C=CN(C(=O)OCC)C=C3)C(=C3C=CN(C(=O)OCC)C=C3)C2=C2C=CN(C(=O)OCC)C=C2)C=C1
Out: 33.9 µM

In: Consider the molecule shown here: CC1=CC(=O)c2ccc(C)cc2C1=O What is its recorded TGI?
Out: 4.2 µM

In: Need TGI of O=S(=O)(O)C(Cc1nc2ccccc2[nH]1)S(=O)(=O)OCCC1S(=O)(=O)OCCOS1(=O)=O (stereo not given) , thanks.
Out: > 100 µM

====

System: A549 NSCLC
Assay: NCI tumour cell line growth inhibition, 48 h; in the data active means GI50 below about 0.43 µM; inactive means the rest
Select the matching outcome among active, inactive

1. Cc1cc2nc(C(Cl)Cl)nc(-c3ccccc3)n2n1; inactive
2. Fc1cccc(-c2[nH]nc3nc(Nc4cccnc4)sc23)c1; inactive
3. O=C(O)c1ccccc1Nc1ccc2nnc(-c3ccncc3)n2n1; inactive

In: For this compound, state the assay outcome: COc1ccc2nc(-c3cc4c([nH]c5ccccc54)c(-c4ccc(F)c(F)c4)n3)[nH]c2c1
Out: inactive

In: Please state the recorded outcome for this compound: CC[CH2][Sn]([CH2]CC)([O]C(=O)Cc1ccc(F)cc1)[O][Sn]([CH2]CC)([CH2]CC)[O]C(=O)Cc1ccc(F)cc1
Out: inactive

In: Per the records of this test, what outcome belongs to O=C(NCCCCCCNC(=O)OCc1ccc2c(Cl)cc(Cl)c(O)c2n1)OCc1ccc2c(Cl)cc(Cl)c(O)c2n1 ?
Out: inactive

In: Which outcome did this test record for the compound Cc1ccc(C2=NN(c3ccc(S(N)(=O)=O)cc3)C(c3cn(-c4ccccc4)nc3-c3ccccc3)C2)cc1 (centres undefined) ?
Out: inactive

In: Look up the recorded call for Nc1ccccc1C#Cc1ccccc1C#Cc1cnccn1 in this test.
Out: inactive

In: Each compound tested received a call. Report the one for Cc1nc2sc(C(=O)Nc3cccc(Br)c3)c(N)c2cc1C(O)c1ccccc1 (centres undefined) .
Out: inactive

In: Which outcome was assigned to CCN(CC)CC[n+]1cc2cc(OC)c(OC)cc2c2ccc3cc4c(cc3c21)OCO4 in this test?
Out: active

In: Outcome? c1ccc2c3c(ccc2c1)-c1c(ccc2c(NCCCCN4CCCCC4)cccc12)C3
Out: inactive

In: Tell me the assay call for CC(CN)[C@@H]1CC[C@]2(CO)CC[C@]3(C)[C@H](CC[C@@H]4[C@@]5(C)CCC(N)C(C)(C)[C@@H]5CC[C@]43C)[C@@H]12 (some centres undefined) please.
Out: inactive

In: Could you please tell me the result logged for COc1cc(N2CCC(N3CCN(C)CC3)CC2)ccc1Nc1ncc(Cl)c(Nc2ccccc2S(=O)(=O)C(C)C)n1 in this assay?
Out: active

In: For C[CH2][Sn]([CH2]C)([O]C(=O)c1ccc(F)cc1)[O][Sn]([CH2]C)([CH2]C)[O]C(=O)c1ccc(F)cc1 , which call appears in the assay record?
Out: inactive
